Target: GST-Bcl-B (Homo sapiens, UniProt Q9HD36)
Sequence (Q9HD36 1-182 limits assumed): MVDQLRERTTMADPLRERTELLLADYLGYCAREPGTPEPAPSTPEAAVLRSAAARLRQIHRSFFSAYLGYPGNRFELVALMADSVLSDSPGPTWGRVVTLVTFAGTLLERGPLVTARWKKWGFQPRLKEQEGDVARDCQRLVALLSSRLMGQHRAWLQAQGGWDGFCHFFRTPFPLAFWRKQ
Test: Bcl-B/FITC-TR3-r8 fluorescence polarization competition (displacement) assay, HTS and dose-response
Conditions: Table 7, NCI Mechanistic library; Binding Assay, FP; Concentration 0.02 uM
Assign y whenever F Ratio does not fall below 0.1; assign n whenever it does.

Query: Please indicate if the recorded F Ratio for O=[N+]([O-])c1ccc2c(/N=N/c3c(O)ccc4ccccc34)c(O)cc(S(=O)(=O)O)c2c1 meets or exceeds 0.1.
Reply: n

Query: Please indicate if the recorded F Ratio for CC[n+]1c(-c2ccccc2)c2cc(N)ccc2c2ccc(N)cc21 meets or exceeds 0.1.
Reply: y

Query: Please indicate if the recorded F Ratio for O=C1c2cccc(NCCCNCCO)c2C(=O)c2cccc(NCCCNCCO)c21 meets or exceeds 0.1.
Reply: y

Query: Please indicate if the recorded F Ratio for Cc1cc2c(C(C)C)c(O)c(O)c(C=O)c2c(O)c1-c1c(C)cc2c(C(C)C)c(O)c(O)c(C=O)c2c1O meets or exceeds 0.1.
Reply: y

Query: Please indicate if the recorded F Ratio for CN1CC=C(Nc2ccc(C(=O)Nc3ccc(Nc4ccncc4)cc3)c([N+](=O)[O-])c2)c2cc([N+](=O)[O-])ccc21 meets or exceeds 0.1.
Reply: n

Query: Please indicate if the recorded F Ratio for CN(C)CCc1c2c(nc3ccccc13)C(=O)c1cccnc1C2=O meets or exceeds 0.1.
Reply: y

Query: Please indicate if the recorded F Ratio for CN(C)c1ccc(/C=c2\c3n(c4ccccc24)N(C)C(c2ccc(Cl)cc2)C=3)cc1.O=S(=O)(O)C(F)(F)F (stereo not shown) meets or exceeds 0.1.
Reply: y
